- experimental.system: PIKfyve (Homo sapiens (Human))
- Sequence (Q9Y2I7 whole entry): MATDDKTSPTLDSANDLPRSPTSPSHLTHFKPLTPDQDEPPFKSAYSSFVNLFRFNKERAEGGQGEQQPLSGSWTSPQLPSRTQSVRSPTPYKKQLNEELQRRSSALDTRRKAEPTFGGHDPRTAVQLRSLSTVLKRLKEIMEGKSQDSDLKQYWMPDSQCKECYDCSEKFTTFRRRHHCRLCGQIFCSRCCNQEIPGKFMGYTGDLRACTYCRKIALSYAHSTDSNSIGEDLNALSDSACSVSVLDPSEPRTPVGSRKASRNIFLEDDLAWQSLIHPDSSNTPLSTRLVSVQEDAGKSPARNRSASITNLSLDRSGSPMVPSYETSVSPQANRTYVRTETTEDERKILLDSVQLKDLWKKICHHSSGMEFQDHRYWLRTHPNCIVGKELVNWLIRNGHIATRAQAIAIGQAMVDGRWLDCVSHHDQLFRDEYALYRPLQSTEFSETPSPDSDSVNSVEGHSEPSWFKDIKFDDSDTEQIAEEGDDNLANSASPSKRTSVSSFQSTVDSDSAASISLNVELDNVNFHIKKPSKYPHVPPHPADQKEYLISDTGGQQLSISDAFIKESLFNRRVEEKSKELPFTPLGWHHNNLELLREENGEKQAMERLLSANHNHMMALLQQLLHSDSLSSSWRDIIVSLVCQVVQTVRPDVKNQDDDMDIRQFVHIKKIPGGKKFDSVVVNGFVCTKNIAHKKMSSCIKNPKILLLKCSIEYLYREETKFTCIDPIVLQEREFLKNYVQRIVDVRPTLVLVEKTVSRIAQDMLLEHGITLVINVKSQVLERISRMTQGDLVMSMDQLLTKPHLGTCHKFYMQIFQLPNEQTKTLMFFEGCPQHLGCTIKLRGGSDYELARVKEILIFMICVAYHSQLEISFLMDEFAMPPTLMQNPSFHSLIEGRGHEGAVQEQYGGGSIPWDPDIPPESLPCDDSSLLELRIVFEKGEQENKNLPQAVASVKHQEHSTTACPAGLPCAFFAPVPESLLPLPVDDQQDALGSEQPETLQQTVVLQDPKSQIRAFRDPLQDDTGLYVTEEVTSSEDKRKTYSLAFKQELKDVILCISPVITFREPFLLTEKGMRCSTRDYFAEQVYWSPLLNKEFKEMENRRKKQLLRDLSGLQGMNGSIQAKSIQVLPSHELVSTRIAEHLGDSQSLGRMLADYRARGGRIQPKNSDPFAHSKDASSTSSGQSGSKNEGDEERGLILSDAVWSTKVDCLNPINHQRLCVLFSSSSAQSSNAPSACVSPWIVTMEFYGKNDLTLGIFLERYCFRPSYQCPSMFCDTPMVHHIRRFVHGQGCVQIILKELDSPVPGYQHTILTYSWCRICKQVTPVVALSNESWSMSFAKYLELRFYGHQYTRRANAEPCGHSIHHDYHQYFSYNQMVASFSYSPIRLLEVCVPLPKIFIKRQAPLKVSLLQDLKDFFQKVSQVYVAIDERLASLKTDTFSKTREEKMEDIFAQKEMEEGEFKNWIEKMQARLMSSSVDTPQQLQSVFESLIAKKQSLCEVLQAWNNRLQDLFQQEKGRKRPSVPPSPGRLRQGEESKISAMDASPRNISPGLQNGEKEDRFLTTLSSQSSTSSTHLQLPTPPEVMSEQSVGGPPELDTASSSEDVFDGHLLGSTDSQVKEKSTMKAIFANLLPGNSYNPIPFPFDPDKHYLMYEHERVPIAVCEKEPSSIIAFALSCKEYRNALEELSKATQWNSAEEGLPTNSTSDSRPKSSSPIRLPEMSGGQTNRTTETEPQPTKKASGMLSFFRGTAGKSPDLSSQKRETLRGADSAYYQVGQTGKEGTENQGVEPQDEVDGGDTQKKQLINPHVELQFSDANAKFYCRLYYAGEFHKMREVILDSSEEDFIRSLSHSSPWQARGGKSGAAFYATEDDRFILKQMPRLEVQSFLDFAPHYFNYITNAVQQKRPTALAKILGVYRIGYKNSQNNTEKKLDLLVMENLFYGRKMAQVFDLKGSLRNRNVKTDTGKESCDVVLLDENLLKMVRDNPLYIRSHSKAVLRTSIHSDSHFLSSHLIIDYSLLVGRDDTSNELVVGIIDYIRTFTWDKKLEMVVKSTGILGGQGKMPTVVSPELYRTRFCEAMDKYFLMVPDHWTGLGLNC
- assay.text: PIKfyve EEA1 Assay (endosomal vesicle enlargement, high content imaging in U2OS cells)
- Format: cell-based
- setup.conditions: 3 hours of treatment, activity relative to maximal APY0201 activity
Below, each of the compounds is paired with its reported IC50 value.
observable: IC50

1) COc1c(-c2ccncc2)nc(N2CCOCC2)nc1-c1cccc(-c2ccn(C)n2)c1
1 to 10 µM
2) COc1c(Nc2ccncc2)nc(N2CCOCC2)nc1-c1cccc(N2CCN(C)C(=O)C2)c1
0.1 to 1 µM
3) COc1c(Nc2ccncc2)nc(N2CCOCC2)nc1-c1cncc(-c2ccn(C)n2)c1
0.01 to 0.1 µM
4) COc1c(-c2cccc(-c3ccn(C)n3)c2)nc(N2CCOCC2)nc1-c1cnn(C)c1
1 to 10 µM
5) COc1c(Nc2ccncc2)nc(N2CCOCC2)nc1-c1cccc(-c2cccnn2)c1
0.1 to 1 µM
6) COc1c(Nc2cccnc2)nc(N2CCOCC2)nc1-c1cccc(N2CCN(C)C(=O)C2)c1
1 to 10 µM

---

- experimental.system: full-length human PIKFYVE (Homo sapiens (Human), UniProt Q9Y2I7, L932S/Q1183K/Q995L/S1033A/S696N/T998S)
- Sequence (Q9Y2I7 whole entry S696N/L932S/Q995L/T998S/S1033A/Q1183K): as the sequence (Q9Y2I7 whole entry) above, with S696N, L932S, Q995L, T998S, S1033A, Q1183K counted along it
- assay.text: PIKfyve Biochemical Assay (ADP-Glo Kinase assay, GST-PIKFYVE)
- setup.conditions: ADP-Glo, 1 hour at room temperature, 10 μM to 3 nM in duplicate; read-out: PIKfyve Biochemistry IC50 (μM)*
observable: IC50

1) COc1c(Nc2ccncc2)nc(N2CCCC2=O)nc1-c1cccc(-c2ccn(C)n2)c1 [Compound 44]
1 to 10 µM
2) COc1c(Nc2cccnc2)nc(N2CCOCC2)nc1-c1cncc(-c2ccn(C)n2)c1 [Compound 19]
0.01 to 0.1 µM
3) COc1c(-c2cccc(-c3ccn(C)n3)c2)nc(N2CCOCC2)nc1C(O)c1ccncc1 (stereo not drawn) [Compound 32]
0.1 to 1 µM
4) COc1cc(-c2nc(N3CCOCC3)nc(Nc3ccncc3)c2OC)cnc1OC [Compound 12]
< 0.01 µM
5) COc1ccc(-c2nc(N3CCOCC3)nc(Nc3ccncc3)c2OC)cc1OC [Compound 13]
< 0.01 µM
6) Cn1ccc(-c2cc3c(cn2)COc2c(Nc4ccncc4)nc(N4CCOCC4)nc2-3)n1 [Compound 38]
0.01 to 0.1 µM
7) COc1c(NCc2cccnc2)nc(-c2ccncc2)nc1-c1cccc(-c2ccn(C)n2)c1 [Compound 62]
< 0.01 µM
8) COc1cn(C)nc1-c1cccc(-c2nc(N3CCOCC3)nc(Nc3ccncc3)c2OC)c1 [Compound 47]
0.01 to 0.1 µM
9) CN(C)C(=O)c1c(Nc2ccncc2)nc(N2CCOCC2)nc1-c1cccc(-n2cccn2)c1 [Compound 33]
0.01 to 0.1 µM
10) Cn1ccc(-c2ccc3c(c2)-c2nc(N4CCOCC4)nc(Nc4ccncc4)c2OC3)n1 [Compound 49]
0.01 to 0.1 µM
11) COc1c(Nc2ccncc2)nc(N2CCOCC2)nc1-c1cncc(-c2cccnn2)c1 [Compound 57]
< 0.01 µM
12) COc1c(Nc2ccncc2)nc(N2CCOCC2)nc1-c1cccc(-c2cccnn2)c1 [Compound 10]
0.01 to 0.1 µM
13) COc1c(-c2ccncc2)nc(N2CCOCC2)nc1-c1cccc(-c2ccn(C)n2)c1 [Compound 30]
0.01 to 0.1 µM
14) Cn1c(=O)c2c(Nc3ccncc3)nc(N3CCOCC3)nc2c2cc(-n3cccn3)ccc21 [Compound 65]
0.01 to 0.1 µM
15) COc1c(Nc2ccncc2)nc(N2CCOCC2)nc1-c1cccc(-n2cccn2)c1 [Compound 8]
< 0.01 µM
